Source of measurements: paper PMC3061058

Target Desc: T1, rgyr_hel_Δlatch (Thermotoga maritima, UniProt O51934 59-388+=G+460-541, internal_change)
T1 sequence: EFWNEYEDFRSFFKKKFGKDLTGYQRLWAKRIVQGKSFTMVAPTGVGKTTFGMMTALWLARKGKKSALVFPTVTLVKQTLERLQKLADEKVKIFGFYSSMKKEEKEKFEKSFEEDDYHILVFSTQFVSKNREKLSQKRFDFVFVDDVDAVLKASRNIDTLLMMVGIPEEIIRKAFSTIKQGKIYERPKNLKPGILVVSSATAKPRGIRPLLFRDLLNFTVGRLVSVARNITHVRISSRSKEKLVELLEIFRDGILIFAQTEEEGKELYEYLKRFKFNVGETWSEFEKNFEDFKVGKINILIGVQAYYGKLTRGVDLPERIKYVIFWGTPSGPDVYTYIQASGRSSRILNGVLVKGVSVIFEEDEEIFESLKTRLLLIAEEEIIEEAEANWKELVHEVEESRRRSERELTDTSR
Assay Notes: fluorescence anisotropy
Assay Endpoint: Kd (µM)
Dear colleague, please return just the value in µM, with no unit written.

Binder	Unit Annotation	Kd
60 b ssDNA (ssDNA) DNA: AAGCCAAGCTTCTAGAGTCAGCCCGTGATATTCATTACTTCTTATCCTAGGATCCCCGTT	µM	0.42

Report Kd for 60 bp dsDNA (dsDNA) DNA 1: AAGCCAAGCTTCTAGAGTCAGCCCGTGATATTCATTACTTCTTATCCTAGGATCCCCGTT DNA 2: AACGGGGATCCTAGGATAAGAAGTAATGAATATCACGGGCTGACTCTAGAAGCTTGGCTT
21
